Recorded IC50 for the following molecules
# targetOfAssay: Human 5-HT6 (Homo sapiens)
# Construct: expressed in transfected cells
# Sequence (P50406 whole entry): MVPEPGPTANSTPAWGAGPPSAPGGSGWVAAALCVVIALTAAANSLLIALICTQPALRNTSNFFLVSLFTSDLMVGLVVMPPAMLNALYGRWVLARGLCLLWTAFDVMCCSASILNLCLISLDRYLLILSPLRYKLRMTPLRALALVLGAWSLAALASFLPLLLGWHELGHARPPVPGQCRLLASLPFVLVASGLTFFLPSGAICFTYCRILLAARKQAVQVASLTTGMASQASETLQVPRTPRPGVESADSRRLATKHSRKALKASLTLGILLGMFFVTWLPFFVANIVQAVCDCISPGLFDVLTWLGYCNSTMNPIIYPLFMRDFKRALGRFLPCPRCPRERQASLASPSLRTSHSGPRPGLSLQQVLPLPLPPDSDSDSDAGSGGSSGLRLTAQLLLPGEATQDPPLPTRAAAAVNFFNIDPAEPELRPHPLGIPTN
# assayInfo: 5-HT6 receptor binding assay ([3H]5-HT displacement, SPA), human receptor
# Method: 5-HT6 Receptor Binding Assay Affinity (IC50) of a compound for cloned human, rat, or mouse 5-HT6 receptor was measured by its ability to displace [^3H]5-HT using cell membranes prepared from cultured cells and scintillation proximity assay (SPA) beads that bind to cell membranes (Catalog No. RPNQ0001; GE Healthcare Life Sciences, Piscataway, N.J.). […] Following 1 h incubation at room temperature, the radioactivity bound to the cell membranes was measured on a scintillation counter.
Entry rule: numbers only, all in nM.

// solved cases for IC50 follow
>>> recordedresult("CCS(=O)(=O)n1cc(CCNCc2cccc(OCC(F)(F)C(F)F)c2)c2ccc(F)cc21 [Example 13]")
2.62
>>> recordedresult("CS(=O)(=O)n1cc(CCNCc2cccc(OCC(F)(F)C(F)F)c2)c2ccc(F)cc21 [Example 12]")
1.61
>>> recordedresult("O=S(=O)(c1ccc(F)cc1)n1cc(CCNCc2cccc(OCC(F)(F)C(F)F)c2)c2ccc(F)cc21 [Example 6]")
2.88

We now examine a further molecule.
Problem: Need IC50 of O=S(=O)(c1ccc(OC(F)(F)F)cc1)n1cc(CCNCc2cccc(OCC(F)(F)C(F)F)c2)c2ccc(F)cc21 [Example 2] , thanks.
Solution: 46.4
